From: ChEMBL document CHEMBL4261535

- EXPERIMENT: n-octanol-water partition co-efficient, log P of the compound
- Assay type: physicochemical
MEASUREMENT_KIND: logP

Exercise: Tell me measured logP for CC1=C(C(=O)OCc2ccccn2)C(c2ccccc2[N+](=O)[O-])C2=C(CCCC2=O)N1 (stereo not given) please.
Key: 1.88

[1] CC1=C(C(=O)OCc2cccnc2)C(c2cccs2)C2=C(CCCC2=O)N1 (stereo not given)
[2] CCCC1C(C(=O)OCc2ccccn2)=C(C)NC2=C1C(=O)CCC2 (stereo not given)
Exercise: Which value of logP is smaller, the one for 1 or the one for 2 ? Return value: the label identifying the chosen record.
Key: 1
(1: 1.4, 2: 2.6)

====

- EXPERIMENT: n-octanol-water partition co-efficient, log P of the compound
- Format: physicochemical
MEASUREMENT_KIND: logP

Exercise: Tell me measured logP for CC1=C(C(=O)OCc2cccnc2)C(c2ccc([N+](=O)[O-])cc2)C2=C(CCCC2=O)N1 (stereo not given) please.
Key: 1.51

Exercise: Tell me measured logP for CC1=C(C(=O)OCc2cccnc2)C(c2cccc(O)c2)C2=C(CCCC2=O)N1 (stereo not given) please.
Key: 1.21

Exercise: Tell me measured logP for COc1cc(C2C(C(=O)OCc3ccccn3)=C(C)NC3=C2C(=O)CCC3)cc(OC)c1OC (stereo not given) please.
Key: 2.17

Exercise: Tell me measured logP for CC1=C(C(=O)OCc2ccccn2)C(c2ccc(Br)cc2)C2=C(CCCC2=O)N1 (stereo not given) please.
Key: 2.42

Exercise: Tell me measured logP for CC1=C(C(=O)OCc2cccnc2)C(c2ccco2)C2=C(CCCC2=O)N1 (stereo not given) please.
Key: 1.03

Exercise: Tell me measured logP for CC1=C(C(=O)OCc2ccccn2)C(c2cccc(O)c2)C2=C(CCCC2=O)N1 (stereo not given) please.
Key: 1.58

[P] COc1ccc(C2C(C(=O)OCc3ccccn3)=C(C)NC3=C2C(=O)CCC3)cc1 (stereo not given)
[Q] CC1=C(C(=O)OCc2ccccn2)C(c2ccccc2)C2=C(CCCC2=O)N1 (stereo not given)
Exercise: Which value of logP is smaller, the one for P or the one for Q ? Return value: the label identifying the chosen record.
Key: P
(P: 1.9, Q: 2.72)

====

- EXPERIMENT: n-octanol-water partition co-efficient, log P of the compound
- Type: physicochemical
MEASUREMENT_KIND: logP

Observe how each entry below is paired with its result.
Exercise: Tell me measured logP for CC1=C(C(=O)OCc2ccccn2)C(c2ccc([N+](=O)[O-])cc2)C2=C(CCCC2=O)N1 (configuration not stated) please.
Key: 1.88

Exercise: Tell me measured logP for CC1=C(C(=O)OCc2ccccn2)C(c2cccc([N+](=O)[O-])c2)C2=C(CCCC2=O)N1 (configuration not stated) please.
Key: 1.88

Exercise: Tell me measured logP for CC1=C(C(=O)OCc2ccccn2)C(c2ccc(Cl)cc2)C2=C(CCCC2=O)N1 (configuration not stated) please.
Key: 2.24

Exercise: Tell me measured logP for CC1=C(C(=O)OCc2cccnc2)C(c2ccccc2[N+](=O)[O-])C2=C(CCCC2=O)N1 (configuration not stated) please.
Key: 1.51

[a] CC1=C(C(=O)OCc2cccnc2)C(c2ccc(Br)cc2)C2=C(CCCC2=O)N1 (configuration not stated)
[b] CC1=C(C(=O)OCc2ccccn2)C(c2ccco2)C2=C(CCCC2=O)N1 (configuration not stated)
Exercise: Which value of logP is smaller, the one for a or the one for b ? Return value: the label identifying the chosen record.
Key: b
(b: 1.4, a: 2.05)
